- EXPERIMENTAL TARGET: Gal(a1-3)Gal(b1-4)GlcNAc(b1-2)Man(a1-3)[Gal(a1-3)Gal(b1-4)GlcNAc(b1-2)Man(a1-6)]Man(b1-4)GlcNAc(b1-4)GlcNAc
- EXPERIMENT SUMMARY: glycan array binding signal (z-score within array); higher = stronger binding
- SETUP CONDITIONS: glycan notation: IUPAC condensed, linker removed
The entries come from a sample that favours the strongest signals as a whole.
glycan array binding signal (z-score) vs 0.7: at or above is Met, below is Not met.

Solved entries (count: 4):
BINDER: CBM13 2a (Mycobacterium tuberculosum), P64849 (protein) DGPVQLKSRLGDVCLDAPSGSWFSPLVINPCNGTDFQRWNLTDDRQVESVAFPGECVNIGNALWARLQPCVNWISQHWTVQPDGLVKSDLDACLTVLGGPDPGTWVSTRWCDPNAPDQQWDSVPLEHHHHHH
CLASS LABEL: Not met

BINDER: FimA-N2 (Actinomyces oris) (protein) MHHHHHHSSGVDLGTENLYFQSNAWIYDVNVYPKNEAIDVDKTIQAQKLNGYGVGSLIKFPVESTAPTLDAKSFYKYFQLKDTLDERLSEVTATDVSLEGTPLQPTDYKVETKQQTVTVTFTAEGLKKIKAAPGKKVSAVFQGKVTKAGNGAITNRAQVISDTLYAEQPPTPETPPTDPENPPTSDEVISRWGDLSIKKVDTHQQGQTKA
CLASS LABEL: Not met

BINDER: Vd2LysM (Verticillium dahliae) (protein) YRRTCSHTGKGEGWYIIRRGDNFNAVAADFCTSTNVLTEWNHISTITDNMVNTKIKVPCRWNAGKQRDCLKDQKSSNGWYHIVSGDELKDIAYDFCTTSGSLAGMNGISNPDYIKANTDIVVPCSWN
CLASS LABEL: Not met

BINDER: FliC (Clostridium difficile) (protein) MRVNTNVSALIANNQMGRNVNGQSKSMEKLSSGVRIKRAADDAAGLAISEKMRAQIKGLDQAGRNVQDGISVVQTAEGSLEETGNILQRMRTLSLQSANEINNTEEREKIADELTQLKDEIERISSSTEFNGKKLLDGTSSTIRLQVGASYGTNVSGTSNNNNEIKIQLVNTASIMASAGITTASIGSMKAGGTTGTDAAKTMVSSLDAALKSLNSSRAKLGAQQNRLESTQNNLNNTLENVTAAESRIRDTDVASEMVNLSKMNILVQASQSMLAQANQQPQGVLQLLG
CLASS LABEL: Met

Enquiry: Given the entry SJCP3842 (Schistosoma japonicum) (protein) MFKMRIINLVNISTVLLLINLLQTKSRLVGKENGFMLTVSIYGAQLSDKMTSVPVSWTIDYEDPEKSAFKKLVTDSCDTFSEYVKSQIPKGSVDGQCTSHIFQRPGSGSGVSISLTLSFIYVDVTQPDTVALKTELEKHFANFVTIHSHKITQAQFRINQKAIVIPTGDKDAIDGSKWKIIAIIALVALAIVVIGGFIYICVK , answer whether its glycan array binding signal (z-score) meets or surpasses 0.7.
Return: Not met

Enquiry: Also RBMC2 (Vibrio cholerae) (protein) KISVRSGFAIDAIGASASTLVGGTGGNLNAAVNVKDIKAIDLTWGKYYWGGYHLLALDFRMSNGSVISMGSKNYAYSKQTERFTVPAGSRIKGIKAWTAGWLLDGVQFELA , if possible.
Return: Met

Enquiry: Also SSR1 (Sclerotium rolfsii), A0A0M3KL30 (protein) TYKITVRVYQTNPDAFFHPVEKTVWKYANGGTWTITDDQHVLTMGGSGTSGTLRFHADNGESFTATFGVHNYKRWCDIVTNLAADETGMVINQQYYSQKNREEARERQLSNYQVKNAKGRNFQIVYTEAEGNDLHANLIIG , if possible.
Return: Not met
